- System: E. coli ATCC 25922
- assay_details: Antibacterial testing, broth microdilution (CLSI)
- Format: cell-based
- measurement_parameters: Escherichia coli; E. coli ATCC25922 (WT); read-out: MIC100
endpoint_label: MIC

molecule: CNc1cc(F)cc2c1[nH]c1nc(CNC(=O)c3cnco3)nc(N3CCC(N)C3)c12 (stereo not shown)
target_or_test_system: E. coli ATCC 25922
MIC: 8 µg/mL
//
molecule: COc1c(N2C[C@@H]3CCCN[C@@H]3C2)c(F)cc2c(=O)c(C(=O)O)cn(C3CC3)c12 [Moxifloxacin, reference compound]
target_or_test_system: E. coli ATCC 25922
MIC: 0.016 µg/mL
//
molecule: CO[C@@H]1[C@@H](OC(N)=O)[C@@H](O)[C@H](Oc2ccc3c(O)c(NC(=O)c4ccc(O)c(CC=C(C)C)c4)c(=O)oc3c2C)OC1(C)C [novobiocin, reference compound]
target_or_test_system: E. coli ATCC 25922
MIC: 64 µg/mL

Entry under test: `CNc1cc(F)cc2c1[nH]c1nc(Oc3cnc(C)nc3)nc(N3C[C@@H]4[C@@H](N)[C@@H]4C3)c12` . Its MIC was 0.016 µg/mL

###

IC50 values, listed per item
- target_or_test_system: M. tuberculosis GyrBA fusion protein (Mycobacterium tuberculosis, UniProt P9WG45+P9WG47)
- Construct: Both the GyrB and GyrBA constructs were altered by deleting the N-terminal 40 amino acids; made in house; host or cells: E. coli Rosetta 2 (pLysS)
- assay_details: biochemical
- measurement_parameters: GyrBA fusion protein at 200 nM, linear pBR322 DNA 20 μg/mL; read-out: apparent IC50, gyrase ATPase activity
The reply should consist of the numeric value with the unit placed after it.

molecule: CNc1cc(F)cc2c1[nH]c1nc(Oc3cnc(C)nc3)nc(N3C[C@@H]4[C@@H](N)[C@@H]4C3)c12
IC50: 170 nM

API: the following record is the query input.
Entry CNc1cc(F)cc2c1[nH]c1nc(CNC(=O)c3cnco3)nc(N3CCC(N)C3)c12 (centres unmarked) : IC50 on M. tuberculosis GyrBA fusion protein (Mycobacterium tuberculosis, UniProt P9WG45+P9WG47) = 210 nM

###

- Tested on: M. smegmatis 4x03863 Mutant 4
- assay_details: microbe, parasite or virus in culture
- Assay type: cell-based
- measurement_parameters: Mycolicibacterium smegmatis, read-out: MIC100
MIC values, listed per item
Please respond with the number in µg/mL and leave the unit unwritten.

Example compounds with recorded MIC:
compound: CNc1cc(F)cc2c1[nH]c1nc(Oc3cnc(C)nc3)nc(N3C[C@@H]4[C@@H](N)[C@@H]4C3)c12 [Redx03863]
MIC, µg/mL: 0.25

compound: NNC(=O)c1ccncc1 [Isoniazid]
MIC, µg/mL: 32

compound: CNc1cc(F)cc2c1[nH]c1nc(CNC(=O)c3cnco3)nc(N3CCC(N)C3)c12 (centres unmarked) [Redx04739]
MIC, µg/mL: 2

API: the following record is the query input.
Entry under test: CO[C@@H]1[C@@H](OC(N)=O)[C@@H](O)[C@H](Oc2ccc3c(O)c(NC(=O)c4ccc(O)c(CC=C(C)C)c4)c(=O)oc3c2C)OC1(C)C [novobiocin, reference compound] . Its MIC was 4

###

- target_or_test_system: M. tuberculosis GyrBA fusion protein (Mycobacterium tuberculosis, UniProt P9WG45+P9WG47)
- Construct: Both the GyrB and GyrBA constructs were altered by deleting the N-terminal 40 amino acids; made in house; host or cells: E. coli Rosetta 2 (pLysS)
- assay_details: biochemical
- measurement_parameters: gyrase 200 nM; IC50 lower than this not determinable; read-out: IC50, gyrase ATPase reaction
endpoint_label: IC50

molecule: CNc1cc(F)cc2c1[nH]c1nc(CNC(=O)c3cnco3)nc(N3CCC(N)C3)c12 (centres unmarked) [Redx04739]
endpoint_label: IC50
measured_result: ~200 nM

API: the following record is the query input.
Entry under test: CNc1cc(F)cc2c1[nH]c1nc(Oc3cnc(C)nc3)nc(N3C[C@@H]4[C@@H](N)[C@@H]4C3)c12 [Redx03863] . Its IC50 was ~200 nM

Value source: paper PMC7556816
